The origin of these recorded values is patent US12023336B2.

Tested on: HIV-1NL4.3
Assay type: cell-based
Conditions: CEM-GFP cells; HIV-1NL4.3 0.5 MOI; p24 ELISA 72 h post infection
Procedure: Cells were then treated with molecules at different concentrations.
value kind: IC50 (nM)
Return type: number; implicit unit nM.

{"columns": ["compound", "experimental target", "result units", "IC50"],
 "data": [
  ["COC(=O)CCC(NC(=O)c1ccc(N(C)Cc2cnc3nc(N)nc(N)c3n2)cc1)C(=O)OC (stereo not shown) [MTX-methyl-d3-Dimethyl Ester, Methotrexate-methyl-d3-Dimethyl ester]", "HIV-1NL4.3", "nM", 9.9],
  ["COC(=O)CC[C@H](NC(=O)c1ccc(N(C)Cc2cnc3nc(N)nc(N)c3n2)cc1)C(=O)OC [MTX Dimethyl Ester]", "HIV-1NL4.3", "nM", 32.4],
  ["CN(Cc1cnc2nc(N)nc(N)c2n1)c1ccc(C(=O)N[C@@H](CCC(=O)N[C@@H](CCC(=O)N[C@@H](CCC(=O)N[C@@H](CCC(=O)N[C@@H](CCC(=O)N[C@@H](CCC(=O)N[C@@H](CCC(=O)O)C(=O)O)C(=O)O)C(=O)O)C(=O)O)C(=O)O)C(=O)O)C(=O)O)cc1 [MTX heptaglutamate]", "HIV-1NL4.3", "nM", 73.7]
]}

// next entry
Prompt: Request the reported IC50 associated with CN(Cc1cnc2nc(N)nc(N)c2n1)c1ccc(C(=O)N[C@@H](CCC(=O)O)C(=O)O)cc1 [MTX-methyl-d3]
Completion: 42.1

---

tested on: CEM-GFP cells; experiment: MTT cell viability assay in CEM-GFP cells; type: cell-based; conditions: concentration at which cell viability was 50%
Known CC50 of a selection of compounds
Return type: number; implicit unit µM.

Prompt: Request the reported CC50 associated with COC(=O)CC[C@H](NC(=O)c1ccc(N(C)Cc2cnc3nc(N)nc(N)c3n2)cc1)C(=O)OC
Completion: 54.3

Prompt: Request the reported CC50 associated with COC(=O)CCC(NC(=O)c1ccc(N(C)Cc2cnc3nc(N)nc(N)c3n2)cc1)C(=O)OC (stereo not shown) [MTX-methyl-d3-Dimethyl Ester, Methotrexate-methyl-d3-Dimethyl ester]
Completion: 47.3

Prompt: Request the reported CC50 associated with CN(Cc1cnc2nc(N)nc(N)c2n1)c1ccc(C(=O)N[C@@H](CCC(=O)N[C@@H](CCC(=O)N[C@@H](CCC(=O)N[C@@H](CCC(=O)N[C@@H](CCC(=O)N[C@@H](CCC(=O)N[C@@H](CCC(=O)O)C(=O)O)C(=O)O)C(=O)O)C(=O)O)C(=O)O)C(=O)O)C(=O)O)cc1 [MTX heptaglutamate]
Completion: 39.9

Prompt: Request the reported CC50 associated with CN(Cc1cnc2nc(N)nc(N)c2n1)c1ccc(C(=O)N[C@@H](CCC(=O)O)C(=O)O)cc1
Completion: 46.4
